Recorded protein stability index, one value per entry.
system: Saccharomyces cerevisiae; assay: protein stability index of tFT-peptide fusion in wild type (PSI (0-1 scale)); higher = more stable (slower turnover); conditions: genetic background: wild type

| sequenceData | measuredQuantity | valueObserved |
| --- | --- | --- |
| PTKRNHLIKLLN | protein stability index | 0.114 |
| LVVYSSCVACIN | protein stability index | 0.0132 |
| PKHKKGQKQKIN | protein stability index | 0.0768 |
| KKHKKGQPQKIN | protein stability index | 0.0925 |
| FSYRWTFRYWVN | protein stability index | 0.0328 |

Noted for `GLYMCSVGCWFK` : its protein stability index reads 0.291

Noted for `ARWRVGLWRGRS` : its protein stability index reads 0.66

Noted for `KKRKKGQKQKIN` : its protein stability index reads 0.111

Noted for `CTSCGYKFKTNN` : its protein stability index reads 0.642

Noted for `LGVYLSCVACIN` : its protein stability index reads 0.0766

----------
system: Saccharomyces cerevisiae; assay: protein stability index of tFT-peptide fusion (C-terminal peptide) (PSI (0-1 scale)); higher = more stable (slower turnover); details: genetic background: wild type; temperature: 30 C
Recorded protein stability index, one value per entry.
Lab note: record just the number, no unit beside it.

Solved cases (5 shown):
| sequenceData | measuredQuantity | valueObserved |
| --- | --- | --- |
| ATPYGLTPNYSG | protein stability index | 0.676 |
| LLVVSIGSCFFG | protein stability index | 0.572 |
| PPLFSSTNKNPR | protein stability index | 0.664 |
| PPVSPPLPPPPH | protein stability index | 0.704 |
| VIFFLPWYTPHP | protein stability index | 0.692 |

Response field protein stability index (Saccharomyces cerevisiae) for item `GIPPFFTLCRLS` : 0.57

----------
Recorded protein stability index, one value per entry.
test system: Saccharomyces cerevisiae; experiment: protein stability index of tFT-peptide fusion (C-terminal peptide) (PSI (0-1 scale)); higher = more stable (slower turnover); conditions: genetic background: cdc53-1; temperature: 37 C
Lab note: record just the number, no unit beside it.

Solved cases (9 shown):
| sequenceData | valueObserved |
| --- | --- |
| PHGLKPHCPTPS | 0.745 |
| FQLGLVFCVCSG | 0.438 |
| RKRTILVIIVVK | 0.33 |
| FECLLFVNLLVI | 0.345 |
| VCWCVVVLEFGL | 0.367 |
| FLLCGVFFFFFV | 0.405 |
| DSSRRKRLICMN | 0.702 |
| LFVLVLLCWMLT | 0.462 |
| VFRRWGLIGVIV | 0.326 |

Moving on to the next sequence.
Noted for `LGRVSAKFFCVL` : its protein stability index reads 0.74

----------
system: Saccharomyces cerevisiae; assay: protein stability index of tFT-peptide fusion (C-terminal peptide) (PSI (0-1 scale)); higher = more stable (slower turnover); conditions: genetic background: wild type; temperature: 30 C
Recorded protein stability index, one value per entry.
Lab note: record just the number, no unit beside it.

Solved cases (2 shown):
| sequenceData | systemName | protein stability index |
| --- | --- | --- |
| ERGKRSTEWARK | Saccharomyces cerevisiae | 0.681 |
| VWRHSGRVASLA | Saccharomyces cerevisiae | 0.624 |

Noted for `DKVIIRKLRTSK` : its protein stability index reads 0.686

Noted for `EGVVLLVDCVAT` : its protein stability index reads 0.41

Noted for `GNFIGSWLHTVD` : its protein stability index reads 0.811

Noted for `GLDEAYVSRNIN` : its protein stability index reads 0.647

Noted for `RVGTGFVGYSFS` : its protein stability index reads 0.679

Noted for `SLAPLPARAPPL` : its protein stability index reads 0.725

Noted for `RVGRKGRRRGSR` : its protein stability index reads 0.767
